- assayProcedure: AUC (0 to t) in mouse infected with Plasmodium berghei at 10 mg/kg, po
- Type: ADME, organism-based
- setupConditions: in vivo
measuredEndpoint: AUC(0-t)
Express the reported value numerically, then name its unit.

Prompt line: Looking for the measured AUC(0-t) of Cl.N=C(CC(O)c1cc2c(F)cc(F)cc2c2cc(C(F)(F)F)ccc12)Nc1ccc(F)cc1 (stereo unspecified) , can you help?
Response line: 11600 ng·h/mL

----------
- assayProcedure: Plasma stability at 37 °C measured as remaining drug at 2 hrs sampled in triplicate (concentration 25 ng/mL 2 (TKK130))
- Assay type: ADME, cell-free
- setupConditions: human, at 25 ng/mL, read-out: Stability
measuredEndpoint: remaining at 2 h, 25 ng/mL
Remember to quote the unit after the number.

Prompt line: Look at this compound and give its reported remaining at 2 h, 25 ng/mL. Cl.N=C(CC(O)c1cc2c(F)cc(F)cc2c2cc(C(F)(F)F)ccc12)Nc1ccc(F)cc1 (stereo unspecified)
Response line: 90.2%

----------
- assayProcedure: Tmax in mouse infected with Plasmodium berghei at 30 mg/kg, po
- Assay type: ADME, organism-based
- setupConditions: in vivo
measuredEndpoint: Tmax (h)
State just the number; it will be interpreted in h.

Prompt line: Suppose we examine the compound Cl.N=C(CC(O)c1cc2c(F)cc(F)cc2c2cc(C(F)(F)F)ccc12)Nc1ccc(F)cc1 (stereo unspecified) ; what Tmax value has been reported?
Response line: 4

----------
- assayProcedure: Plasma stability at 37 °C measured as remaining drug at 48 hrs sampled in triplicate (concentration 25 ng/mL 2 (TKK130))
- Assay type: ADME, cell-free
- setupConditions: human, at 25 ng/mL, read-out: Stability
measuredEndpoint: remaining at 48 h, 25 ng/mL (%)
Expressed in %, but write only the number.

Prompt line: Fill in the blank: the reported remaining at 48 h, 25 ng/mL of Cl.N=C(CC(O)c1cc2c(F)cc(F)cc2c2cc(C(F)(F)F)ccc12)Nc1ccc(F)cc1 (stereo unspecified) is ____.
Response line: 59.4

----------
- assayProcedure: Tmax in mouse infected with Plasmodium berghei at 10 mg/kg, po
- Format: ADME, organism-based
- setupConditions: in vivo
measuredEndpoint: Tmax (h)
Just the number please, in h, no unit attached.

Prompt line: Consider the compound shown here: Cl.N=C(CC(O)c1cc2c(F)cc(F)cc2c2cc(C(F)(F)F)ccc12)Nc1ccc(F)cc1 (stereo unspecified) What is its recorded Tmax?
Response line: 4

----------
- assayProcedure: Cmax in mouse infected with Plasmodium berghei at 10 mg/kg, po
- Assay type: ADME, organism-based
- setupConditions: in vivo
measuredEndpoint: Cmax (ng/mL)
# unit: ng/mL | format: bare number

Prompt line: # lookup: Cmax of Cl.N=C(CC(O)c1cc2c(F)cc(F)cc2c2cc(C(F)(F)F)ccc12)Nc1ccc(F)cc1 (stereo unspecified)
Response line: 599

----------
- assayProcedure: AUC (0 to t) in mouse infected with Plasmodium berghei at 30 mg/kg, po
- Assay type: ADME, organism-based
- setupConditions: in vivo
measuredEndpoint: AUC(0-t) (ng·h/mL)
I only need the number, in ng·h/mL, no unit after it.

Prompt line: For Cl.N=C(CC(O)c1cc2c(F)cc(F)cc2c2cc(C(F)(F)F)ccc12)Nc1ccc(F)cc1 (stereo unspecified) , what is its reported AUC(0-t)?
Response line: 40900

----------
- systemName: UniProt Q12809
- Sequence (Q12809 whole entry): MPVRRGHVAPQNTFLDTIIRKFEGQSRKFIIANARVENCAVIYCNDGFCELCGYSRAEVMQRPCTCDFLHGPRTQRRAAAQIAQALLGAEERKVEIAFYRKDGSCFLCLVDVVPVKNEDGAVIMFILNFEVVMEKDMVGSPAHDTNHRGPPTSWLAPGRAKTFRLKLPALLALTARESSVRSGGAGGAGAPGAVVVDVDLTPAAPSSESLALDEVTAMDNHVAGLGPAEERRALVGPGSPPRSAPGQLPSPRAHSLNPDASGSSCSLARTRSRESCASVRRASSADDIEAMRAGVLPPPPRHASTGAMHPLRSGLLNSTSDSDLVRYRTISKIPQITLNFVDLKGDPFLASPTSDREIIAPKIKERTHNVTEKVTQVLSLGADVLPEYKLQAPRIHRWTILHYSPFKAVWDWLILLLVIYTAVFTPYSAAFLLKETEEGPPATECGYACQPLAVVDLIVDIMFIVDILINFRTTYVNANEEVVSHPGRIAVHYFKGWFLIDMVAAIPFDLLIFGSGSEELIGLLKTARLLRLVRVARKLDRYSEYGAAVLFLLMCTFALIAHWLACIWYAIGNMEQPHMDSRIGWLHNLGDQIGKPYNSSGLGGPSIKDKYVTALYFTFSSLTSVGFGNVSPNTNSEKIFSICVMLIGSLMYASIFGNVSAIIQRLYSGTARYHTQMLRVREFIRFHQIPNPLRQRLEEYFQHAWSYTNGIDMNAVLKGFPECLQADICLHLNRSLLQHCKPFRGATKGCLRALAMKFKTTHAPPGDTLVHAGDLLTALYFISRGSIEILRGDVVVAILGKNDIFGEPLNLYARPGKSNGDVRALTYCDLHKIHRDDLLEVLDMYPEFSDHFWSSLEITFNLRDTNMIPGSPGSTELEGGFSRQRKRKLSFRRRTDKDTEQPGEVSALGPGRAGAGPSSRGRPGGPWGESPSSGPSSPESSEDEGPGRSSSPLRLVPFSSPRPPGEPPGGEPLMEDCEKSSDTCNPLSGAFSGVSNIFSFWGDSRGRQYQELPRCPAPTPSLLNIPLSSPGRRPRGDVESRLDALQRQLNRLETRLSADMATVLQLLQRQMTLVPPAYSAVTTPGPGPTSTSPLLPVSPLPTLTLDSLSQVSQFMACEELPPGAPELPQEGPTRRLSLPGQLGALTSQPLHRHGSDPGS
measuredEndpoint: IC50 (nM)
Please respond with the number in nM and leave the unit unwritten.

Prompt line: So what's the measured IC50 for this one? Cl.N=C(CC(O)c1cc2c(F)cc(F)cc2c2cc(C(F)(F)F)ccc12)Nc1ccc(F)cc1 (stereo unspecified)
Response line: 300

----------
- assayProcedure: Cytotoxicity against human HepG2 cells assessed as cell viability measured after 24 hrs by neutral red assay
- Type: toxicity, cell-based
measuredEndpoint: IC50 at 24 h (µM)
Expressed in µM, but write only the number.

Prompt line: I would be grateful if you could share the reported IC50 at 24 h for Cl.N=C(CC(O)c1cc2c(F)cc(F)cc2c2cc(C(F)(F)F)ccc12)Nc1ccc(F)cc1 (stereo unspecified) .
Response line: 20

----------
- assayProcedure: Plasma protein binding in plasma (unknown origin) at 25 ng/ml measured after 24 hrs by dilution method
- Assay type: ADME, cell-free
measuredEndpoint: fraction unbound at 24 h, 25 ng/ml
Quick one: just the number, no unit, thanks!

Prompt line: fraction unbound at 24 h, 25 ng/ml for Cl.N=C(CC(O)c1cc2c(F)cc(F)cc2c2cc(C(F)(F)F)ccc12)Nc1ccc(F)cc1 (stereo unspecified) ?
Response line: 0.004

----------
- assayProcedure: Plasma stability at 37 °C measured as remaining drug at 4 hrs sampled in triplicate (concentration 25 ng/mL 2 (TKK130))
- Format: ADME, cell-free
- setupConditions: human, at 25 ng/mL, read-out: Stability
measuredEndpoint: remaining at 4 h, 25 ng/mL (%)
Provide only the numeric value, understood in %.

Prompt line: Data request, read-out remaining at 4 h, 25 ng/mL, for Cl.N=C(CC(O)c1cc2c(F)cc(F)cc2c2cc(C(F)(F)F)ccc12)Nc1ccc(F)cc1 (stereo unspecified)
Response line: 89.1

Data provenance: ChEMBL document CHEMBL6087468
